Origin of the recorded values: paper PMC5540273

Give measured %Inh for each item. Keep answers brief.
System: PIK3CD;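 also: KINOMEscan kinase panel screen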
Details: concentration: 1 μM, replicates: in singlicate; n = 1
Answer format: numeric, % implied, no suffix.

Record lookup: for PIK3CD, what %Inh belongs to "FC(F)(F)c1ccc(-c2ncn(CCCN3CCOCC3)c2-c2ccncc2)cc1" ?
0

Record lookup: for PIK3CD, what %Inh belongs to "COc1cccc(C2=C(Nc3cccc(C(=O)O)c3)C(=O)NC2=O)c1" ?
32

Record lookup: for PIK3CD, what %Inh belongs to "CCn1c(-c2ccoc2)nc2cnccc21" ?
0

Record lookup: for PIK3CD, what %Inh belongs to "COc1ccc(-c2cc3c(C)nc(N)nc3n([C@H]3CC[C@H](OCCO)CC3)c2=O)cn1" ?
96.6

Record lookup: for PIK3CD, what %Inh belongs to "Cc1nc(N(C)[C@H]2CN(C(=O)CC#N)CC[C@H]2C)c2cc[nH]c2n1" ?
12

Record lookup: for PIK3CD, what %Inh belongs to "COc1cc(OC)cc(-c2cc3cnc(N)nc3nc2NC(=O)NC(C)(C)C)c1" ?
0

Record lookup: for PIK3CD, what %Inh belongs to "COc1cc2nccc(Nc3cccc(Oc4ccccc4)c3)c2cc1OC.Cl" ?
55

Record lookup: for PIK3CD, what %Inh belongs to "CN(C)c1cc(-c2ccc3c(N)n[nH]c3c2)nc(N)n1" ?
0

Record lookup: for PIK3CD, what %Inh belongs to "O=c1cc(N2CCOCC2)nc2n(Cc3ccc(F)c(Cl)c3)ccn12" ?
75

Record lookup: for PIK3CD, what %Inh belongs to "COc1cc2ncn(-c3cc(OCCCc4ccccc4)c(C(N)=O)s3)c2cc1OC" ?
0

Record lookup: for PIK3CD, what %Inh belongs to CCS(=O)c1ccc(-c2coc3ccc(-c4nnc(C)o4)cc23)cc1 (stereo not drawn) ?
12

Record lookup: for PIK3CD, what %Inh belongs to "COc1cc(Nc2ccnc3ccc(C(F)(F)F)cc23)cc(OC)c1OC" ?
0

Record lookup: for PIK3CD, what %Inh belongs to "CCC(=O)c1c(-c2ccccc2)c2cc(Cl)ccc2c(=O)n1Cc1cc(S(C)(=O)=O)n(CC(F)F)n1" ?
0

Record lookup: for PIK3CD, what %Inh belongs to "COc1ccc(-c2cc3c(C)nc(N)nc3n([C@H]3CC[C@H](O)CC3)c2=O)cn1" ?
94.1

Record lookup: for PIK3CD, what %Inh belongs to "COC(=O)c1c(-c2ccccc2)c2cc(C)ccc2c(=O)n1Cc1ccccc1" ?
0

Record lookup: for PIK3CD, what %Inh belongs to "COC(=O)c1c(-c2ccccc2)c2cc(Br)ccc2c(=O)n1Cc1ccc(NC(=O)CCC(=O)O)cc1" ?
0

Record lookup: for PIK3CD, what %Inh belongs to "CCC(=O)c1c(-c2ccccc2)c2cc(Cl)ccc2c(=O)n1Cc1ccc(C(=O)O)cc1" ?
0

Record lookup: for PIK3CD, what %Inh belongs to "CCc1ccc(-c2ccc3c(c2)-c2nn(C)cc2S(=O)(=O)N3C)cc1" ?
0

Record lookup: for PIK3CD, what %Inh belongs to "O=C(Nc1n[nH]c2nc(-c3ccccc3)c(Br)cc12)C1CC1" ?
3

Record lookup: for PIK3CD, what %Inh belongs to "Nc1nc(-c2ccccc2F)c(-c2ccnc3ccccc23)s1" ?
12

Record lookup: for PIK3CD, what %Inh belongs to Cc1nnc(-c2ccc3ncn(-c4ccc(S(C)=O)cc4)c3c2)o1 (stereo not drawn) ?
38

Record lookup: for PIK3CD, what %Inh belongs to "COc1cc2ncn(-c3cc(OCc4ccc(S(C)(=O)=O)cc4)c(C(N)=O)s3)c2cc1OC" ?
16

Record lookup: for PIK3CD, what %Inh belongs to "O=C(NCc1cccs1)c1cc(C(=O)c2c(Cl)cccc2Cl)c[nH]1" ?
0

Record lookup: for PIK3CD, what %Inh belongs to "O=C(NCCNc1ccnc(Nc2ccc(F)cc2)n1)Nc1ccc2c(c1)OCO2" ?
0

Record lookup: for PIK3CD, what %Inh belongs to COc1ccc(Nc2nccc(N3CCC(NS(=O)(=O)c4ccc(NC(C)=O)cc4)C3)n2)cc1 (stereo not drawn) ?
27

Record lookup: for PIK3CD, what %Inh belongs to "COc1cccc(-n2cnc3c(N)ncnc32)c1" ?
54

Record lookup: for PIK3CD, what %Inh belongs to "Fc1cccc(CSc2nnc(-c3ccc4c(c3)CCO4)o2)c1" ?
0
